Where do the numbers come from? From ChEMBL document CHEMBL1159062.

Test: Inhibition of yeast recombinant FTase by fluorescent-based assay
Design: species or system Saccharomyces cerevisiae
Details: read-out: IC50
Each record is given Met if its reported IC50 is strictly below 40 µM. Records at or above 40 µM are given Not met.

q: Threshold test, IC50 < 40 µM: CC(C)=CCC/C(C)=C/CC/C(C)=C/CCC(=O)CCC(=O)O
a: Not met

q: Threshold test, IC50 < 40 µM: CC(C)=CCC/C(C)=C/CC/C(C)=C/COC(=O)CCC(=O)O
a: Not met

q: Threshold test, IC50 < 40 µM: CC(C)=CCC/C(C)=C/CC/C(C)=C/CCCC(=O)O
a: Not met

q: Threshold test, IC50 < 40 µM: CC(C)=CCC/C(C)=C/CC/C(C)=C/CCC(=O)NS(=O)(=O)O
a: Not met

q: Threshold test, IC50 < 40 µM: CC(C)=CCC/C(C)=C/CC/C(C)=C/COC(C(=O)O)C(=O)O
a: Met

q: Threshold test, IC50 < 40 µM: CC(C)=CCC/C(C)=C/CC/C(C)=C/CCC(=O)NC(C(=O)O)C(=O)O
a: Not met

q: Threshold test, IC50 < 40 µM: CC(C)=CCC/C(C)=C/CC/C(C)=C/CC(=O)CCCC(=O)O
a: Met

q: Threshold test, IC50 < 40 µM: CC(C)=CCC/C(C)=C/CC/C(C)=C/CC(C(=O)O)C(=O)O
a: Met

q: Threshold test, IC50 < 40 µM: CCCCCCCCCCCCCC/C(C(=O)O)=C(\C)C(=O)O
a: Met

q: Threshold test, IC50 < 40 µM: CC(C)=CCC/C(C)=C/CC/C(C)=C/CCC(=O)NS(=O)(=O)c1ccccc1
a: Not met

q: Threshold test, IC50 < 40 µM: CC(C)=CCC/C(C)=C/CC/C(C)=C/COC(=O)CC(=O)O
a: Not met

q: Threshold test, IC50 < 40 µM: CC(C)=CCC/C(C)=C/CC/C(C)=C/CCC(=O)CCCC(=O)O
a: Met
